Origin of measurements: patent US12023323B2

- System: ZIKV GFP RVPs
- experimental-conditions: Vero cells, ZIKV RVPs
quantity: anti-ZIKV activity in words

Worked cases, anti-ZIKV activity in words given:
INPUT: Which measured anti-ZIKV activity in words belongs to "c1ccc2[nH]c(CNCc3cc(CNCc4cc5ccccc5[nH]4)cc(-c4cc(CNCc5cc6ccccc6[nH]5)cc(CNCc5cc6ccccc6[nH]5)c4)c3)cc2c1" , tested on ZIKV GFP RVPs?
OUTPUT: weaker inhibition

INPUT: Same question, "c1csc(CNCc2cc(CNCc3cccs3)cc(-c3cc(CNCc4cccs4)cc(CNCc4cccs4)c3)c2)c1" this time
OUTPUT: less potent

INPUT: Entry "c1coc(CNCc2cc(CNCc3ccco3)cc(-c3cc(CNCc4ccco4)cc(CNCc4ccco4)c3)c2)c1" please
OUTPUT: less potent

INPUT: Try this molecule next: "c1ccc(CNCc2cc(CNCc3ccccn3)cc(-c3cc(CNCc4ccccn4)cc(CNCc4ccccn4)c3)c2)nc1"
OUTPUT: weaker inhibition

Let us move to another entry and its anti-ZIKV activity in words.
INPUT: Lab request: please report anti-ZIKV activity in words under test system ZIKV GFP RVPs for "Oc1cccc(CNCc2cc(CNCc3cccc(O)c3)cc(-c3cc(CNCc4cccc(O)c4)cc(CNCc4cccc(O)c4)c3)c2)c1"
OUTPUT: weaker inhibition

* * *

- Test system: HeLa cells
- protocol-text: Cellular toxicity, CellTiter-Glo, HeLa cells
- experimental-conditions: read-out: TC50, Table 2, 72 h
quantity: CC50 (nM)
Numbers only, in nM.

INPUT: Request the reported CC50 associated with "c1csc(CNCc2cc(CNCc3cccs3)cc(-c3cc(CNCc4cccs4)cc(CNCc4cccs4)c3)c2)c1"
OUTPUT: 2470

INPUT: Next record, please: "c1coc(CNCc2cc(CNCc3ccco3)cc(-c3cc(CNCc4ccco4)cc(CNCc4ccco4)c3)c2)c1"
OUTPUT: 2510

Attention now shifts to the item below.
INPUT: Fill in: CC50 of "c1c[nH]c(CNCc2cc(CNCc3ccc[nH]3)cc(-c3cc(CNCc4ccc[nH]4)cc(Cn4cc(COCCOCCOCCOCc5cn(Cc6cc(CNCc7ccc[nH]7)cc(-c7cc(CNCc8ccc[nH]8)cc(CNCc8ccc[nH]8)c7)c6)nn5)nn4)c3)c2)c1" is ___
OUTPUT: 2480

* * *

- Test system: Vero cells
- protocol-text: Cellular toxicity, CellTiter-Glo, Vero cells
- experimental-conditions: read-out: TC50, Table 1, 72 h, CellTiter-Glo
quantity: CC50 (µM)
Answers are plain numbers, in µM.

Worked cases, answers included:
INPUT: Value lookup for CC50; key = c1csc(CNCc2cc(CNCc3cccs3)cc(-c3cc(CNCc4cccs4)cc(CNCc4cccs4)c3)c2)c1 [SCR003]
OUTPUT: 4.12

INPUT: Can you handle c1coc(CNCc2cc(CNCc3ccco3)cc(-c3cc(CNCc4ccco4)cc(CNCc4ccco4)c3)c2)c1 [SCR002] next?
OUTPUT: 5.43

Field: next molecule
INPUT: Which CC50 value is on record for c1c[nH]c(CNCc2cc(CNCc3ccc[nH]3)cc(-c3cc(CNCc4ccc[nH]4)cc(Cn4cc(COCCOCCOCCOCc5cn(Cc6cc(CNCc7ccc[nH]7)cc(-c7cc(CNCc8ccc[nH]8)cc(CNCc8ccc[nH]8)c7)c6)nn5)nn4)c3)c2)c1 [SCR012] ?
OUTPUT: 36.2
